- study-system: human Ang-2 mutated at positions 365 and 367 (human) (UniProt O15123)
- Sequence (O15123 19-496, change not shown): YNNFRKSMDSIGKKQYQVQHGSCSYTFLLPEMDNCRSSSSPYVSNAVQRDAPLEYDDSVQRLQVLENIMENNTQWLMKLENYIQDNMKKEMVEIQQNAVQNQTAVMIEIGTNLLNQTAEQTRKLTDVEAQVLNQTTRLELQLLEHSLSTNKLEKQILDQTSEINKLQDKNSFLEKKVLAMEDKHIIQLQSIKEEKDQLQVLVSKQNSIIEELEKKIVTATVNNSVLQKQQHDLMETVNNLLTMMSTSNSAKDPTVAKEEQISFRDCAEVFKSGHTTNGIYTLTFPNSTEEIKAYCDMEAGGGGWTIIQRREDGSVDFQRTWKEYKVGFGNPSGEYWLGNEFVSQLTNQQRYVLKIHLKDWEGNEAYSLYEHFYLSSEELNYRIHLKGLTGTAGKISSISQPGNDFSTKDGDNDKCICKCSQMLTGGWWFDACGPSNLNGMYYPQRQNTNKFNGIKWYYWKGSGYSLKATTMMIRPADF
- assay-comment: ELISA
metric-name: percent binding compared to human Ang-2 (%)
Numeric only. Scale: %

Which percent binding compared to human Ang-2 value is on record for mAb 3.3.2 (antibody, V domains shown) VH: EVQLVESGGGLVQPGGSLRLSCAVSGFTFSSYWMSWVRQAPGKGLEWVANIKQDGSEKYYVDSVKGRFTISRDNAKNSLYLQMNSLRAEDTAVYYCARDQGIAVAGPFDYWGQGTLVTVSS VL: EIVMTQSPATLSVSPGERATLSCRASQTVSSDLAWYQQKPGQAPRLLIYGASIRATGIPARFSGSGSGTEFTLTISSLQSEDFAVYSCQQYYNWWTFGQGTKVEIKR ?
100

Which percent binding compared to human Ang-2 value is on record for mAb 5.62.1 (antibody, V domains shown) VH: EVQLVESGGGLVQPGGSLRLSCAASGFTFSSYWMSWVRQAPGKGLEWVANIKQDGSEKYYVDSVKGRFTISRDNAKNSLYLQMNSLRAEDTAVYYCARDPGIAVAGPFDYWGQGTLVTVSS VL: EIVMTQSPATLSVSPGERATLSCRASQSVSSNLAWYQQKPGQAPRLLIYGAFTRATGIPARFSGSGSGTEFTLTISSLQSEDFAVYYCQQYNHWWTFGQGTKVGIKR ?
100

Which percent binding compared to human Ang-2 value is on record for mAb 5.2.1 (antibody, part only; not given: light chain, V domains shown, part only) VH: QVQLVESGGGVVQPGRSLRLSCAASGFTFSSYGMHWVRQAPGKGLEWVAVIWFDGFNKYYADSVKGRFTISRDNSKNTLYLQMNSLRAEDTAVYHCARDRGYSGYDHYYGMDVWGQGTTVTVSSA ?
100
